# Test system: liver cancer cell line J5
# Test summary: MTT growth inhibition assay, J5
# Type: cell-based
# Study conditions: J5, hepatocarcinoma
Value type: pIC50
When answering, recall that pIC50 equals minus log10 of the concentration in mol/L, and write that number alone.

Data request, read-out pIC50, for COc1cc(/C=C2\C(=O)OCC2Cc2ccc3c(c2)OCO3)cc(OC)c1OC (racemic)
5.60

So what's the measured pIC50 for this one? COc1cc(/C=C2\C(=O)OC[C@@H]2Cc2ccc3c(c2)OCO3)cc(OC)c1OC
4.67

* * *

# Tested on: gastric cancer cell line NCI-N87
# Test summary: MTT growth inhibition assay, NCI-N87
# Assay type: cell-based
# Study conditions: NCI-N87, gastric carcinoma
pIC50: −log10 of the molar value.
Value type: pIC50

# query: pIC50 of entry COc1cc(/C=C2\C(=O)OCC2Cc2ccc3c(c2)OCO3)cc(OC)c1OC (racemic) [Z-K8]
< 4.00
